target: Calpain-1 catalytic subunit (Homo sapiens); assay: Tested for inhibitory activity against calpain
Sequence (P07384 whole entry): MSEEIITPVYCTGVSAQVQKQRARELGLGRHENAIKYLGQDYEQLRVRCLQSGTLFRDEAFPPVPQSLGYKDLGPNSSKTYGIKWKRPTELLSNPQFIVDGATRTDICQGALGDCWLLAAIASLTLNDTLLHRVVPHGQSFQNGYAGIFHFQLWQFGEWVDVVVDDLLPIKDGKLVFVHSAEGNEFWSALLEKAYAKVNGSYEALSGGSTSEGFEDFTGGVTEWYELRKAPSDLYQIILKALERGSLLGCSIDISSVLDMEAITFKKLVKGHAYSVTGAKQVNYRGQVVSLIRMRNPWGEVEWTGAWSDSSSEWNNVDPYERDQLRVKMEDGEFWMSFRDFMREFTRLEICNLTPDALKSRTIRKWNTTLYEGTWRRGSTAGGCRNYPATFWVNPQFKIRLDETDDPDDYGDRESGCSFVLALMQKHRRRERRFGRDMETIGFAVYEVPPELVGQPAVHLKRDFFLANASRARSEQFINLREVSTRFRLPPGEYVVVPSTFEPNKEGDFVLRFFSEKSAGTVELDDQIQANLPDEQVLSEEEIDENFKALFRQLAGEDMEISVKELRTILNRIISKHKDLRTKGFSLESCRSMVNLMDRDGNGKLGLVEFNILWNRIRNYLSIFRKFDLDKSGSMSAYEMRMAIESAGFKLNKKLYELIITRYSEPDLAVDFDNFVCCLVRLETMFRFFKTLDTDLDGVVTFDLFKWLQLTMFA
valueType: Ki (µM)
Form entry: value (µM) — number only.

stdin: Return reported Ki. Input compound: CC(=O)O[C@@H]1OCN(C(=O)C(NC(=O)OCc2ccccc2)C(C)C)[C@H]1Cc1ccccc1 (stereo partly specified)
stdout: 2
